# system: T1, CD25 protein (Sino Biological, 10165-H08H) (UniProt P01589 22-213)
# T1 construct: Bought recombinant protein; It speaks elsewhere of human CD25; also called antigen CD25; IL-2Rα
# T1 sequence (looked up): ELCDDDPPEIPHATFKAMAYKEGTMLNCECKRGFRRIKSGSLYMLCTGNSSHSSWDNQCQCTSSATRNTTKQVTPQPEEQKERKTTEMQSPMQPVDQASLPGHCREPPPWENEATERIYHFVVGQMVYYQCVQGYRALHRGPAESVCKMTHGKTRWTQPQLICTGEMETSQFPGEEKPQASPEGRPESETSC
# assay method text: SPR (BIAcore 8K); antibody captured by anti-human IgG Fc, CD25 protein as analyte, 1:1 model
pKd: −log10 of the molar value.
recorded endpoint: pKd

>>> assay_result("CD25Q14-BA448-IgG1 (antibody, V domains shown, IgG1; The VH is copied as printed. 'YVVGQG' near its end may be a misprint of 'YWGQG') VH: EVQLVQSGAEVKKPGESLKISCKGSGYNFANYWIVWVRQMPGKGLEWMGITYPDDSETRYSPSFQGQVTFSADKSISTAYLQWSSLKASDTAMYYCTRGPYYSDYWGQGTLVTVSS VL: DIQMTQSPSTLSASVGDRVTITCRASQSISSWLAWYQQKPGKAPKLLIYKASSLESGVPSRFSGSGSGTEFTLTISSLQPDDFATYYCQQYDRFSWTFGQGTKVEIKR")
9.04
>>> assay_result("CD25Q11-BA402-IgG1 (antibody, V domains shown, IgG1 expressed in HEK293) VH: QVQLVQSGAEVKKPGESLKISCKGSGYSFSNYWIAWVRQMPGKGLEWMGIIYPGDSATRYSPSFQGQVTISADKSINTAYLQWSSLRASDTAMYYCARGPYYFEYWGQGTLVTVSS VL: DIVMTQSPSTLSASVGDRVTLTCRASQSISSYLAWYQQKPGKAPKLLIYKASTLESGVPSRFSGSGSGTEFTLTISSLQPDDFATYYCQHYNSYSVTFGGGTKVEIKR")
9.22
>>> assay_result("CD25Q14-CA705-IgG1 (antibody, V domains shown, IgG1 expressed in HEK293) VH: EVQLVQSGAEVKKPGESLKISCKGSGYSFANYWIVWVRQMPGKGLEWMGIIYPDDSETRYSPSFQGQVTFSADKSISTAYLQWSSLKASDTAMYYCTRGPYYSDYWGQGTLVTVSS VL: DIQMTQSPSTLSASVGDRVSITCRASQSIGSWLAWYQQKPGKAPKLLIFEASNLESGVPSRFSGSGSGTEFTLTISNLQPDDFATYYCQQYNSYSLTFGGGTKVEIKR")
8.71

Source listed as patent US20220195055A1.
